molecular target: rat P2X7R (Rattus norvegicus, UniProt Q64663); construct: gene P2rx7; rP2X7R (NM_019256) stably expressed in 1321N1 cells; experiment: single-cell Fura-2 Ca2+ imaging, BzATP-stimulated rP2X7R-1321N1 cells; type: cell-based; conditions: read-out: IC50
Sequence (Q64663 whole entry): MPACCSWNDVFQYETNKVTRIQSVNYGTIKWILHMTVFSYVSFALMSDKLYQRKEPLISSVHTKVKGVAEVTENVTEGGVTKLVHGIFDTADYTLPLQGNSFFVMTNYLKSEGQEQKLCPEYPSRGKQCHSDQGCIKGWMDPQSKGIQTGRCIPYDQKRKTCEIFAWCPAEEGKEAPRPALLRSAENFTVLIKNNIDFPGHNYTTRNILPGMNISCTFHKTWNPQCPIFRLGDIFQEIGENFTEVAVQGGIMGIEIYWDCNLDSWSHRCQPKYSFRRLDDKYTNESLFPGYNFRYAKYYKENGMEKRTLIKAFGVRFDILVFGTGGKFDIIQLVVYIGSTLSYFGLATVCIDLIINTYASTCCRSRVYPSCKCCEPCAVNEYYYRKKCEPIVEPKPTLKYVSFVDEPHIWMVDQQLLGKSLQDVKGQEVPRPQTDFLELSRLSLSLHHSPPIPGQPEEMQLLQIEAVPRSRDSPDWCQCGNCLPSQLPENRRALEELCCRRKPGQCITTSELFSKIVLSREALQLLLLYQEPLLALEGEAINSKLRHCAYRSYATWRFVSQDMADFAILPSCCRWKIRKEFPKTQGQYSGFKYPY
metric: pIC50
Numbers only, as −log10 of the molar value.

COc1cc(C(=O)NS(=O)(=O)c2ccccc2C)ccc1Cc1cn(C)c2ccc(NC(=O)OC3CCCC3)cc12 [ZFK, zafirlukast] ... 6.66

Below: the item to evaluate.
Which pIC50 value is on record for COCCOC(=O)C1=C(C)NC(C)=C(C(=O)OC/C=C/c2ccccc2)C1c1cccc([N+](=O)[O-])c1 (racemic) [CNP] ?
6.89
